All values here come from ChEMBL document CHEMBL1134823.

- Assay target: Beta-2 adrenergic receptor (Homo sapiens)
- Sequence (P07550 whole entry, looked up): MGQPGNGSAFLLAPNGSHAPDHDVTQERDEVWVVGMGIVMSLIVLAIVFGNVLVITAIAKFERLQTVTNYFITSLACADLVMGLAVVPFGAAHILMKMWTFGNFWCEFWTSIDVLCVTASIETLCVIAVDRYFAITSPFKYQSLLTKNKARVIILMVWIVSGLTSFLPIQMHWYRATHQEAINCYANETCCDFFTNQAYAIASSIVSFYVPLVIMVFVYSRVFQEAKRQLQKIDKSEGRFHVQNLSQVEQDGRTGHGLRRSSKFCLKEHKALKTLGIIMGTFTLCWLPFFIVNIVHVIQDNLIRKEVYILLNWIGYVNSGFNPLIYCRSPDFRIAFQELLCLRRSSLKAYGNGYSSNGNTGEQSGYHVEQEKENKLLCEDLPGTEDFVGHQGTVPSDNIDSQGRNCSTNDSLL
- Assay name: Percent of maximal stimulation was determined as adenylate cyclase activation using isoproterenol as standard at a concentration of 10000 nM
- Assay type: functional
Outcome measure: Activation (%)

> print(dat)
                  compound.structure.string  endpoint.unit  reported.value
1  CCCCCCCCc1csc(N2CCc3c(N/C(=N/c4ccc(CCNC[C@H](O)c5cccnc5)cc4)NC#N)cccc32)n1              %              25
2  N#CN/C(=N\c1cccc2c1CCN2c1nc(-c2ccc(OC(F)(F)F)cc2)cs1)Nc1ccc(CCNC[C@H](O)c2cccnc2)cc1              %              20

[P] N#CN/C(=N\c1ccc2c(c1)N(c1nc(-c3ccc(OC(F)(F)F)cc3)cs1)CC2)Nc1ccc(CCNC[C@H](O)c2cccnc2)cc1
[Q] N#CN/C(=N\c1ccc2c(c1)CCN2c1nc(-c2ccc(OC(F)(F)F)cc2)cs1)Nc1ccc2cc(CCNC[C@H](O)c3cccnc3)ccc2c1
API: POST /compare with P and Q ; response names the item with higher Activation. Respond with the label that goes with your answer.
P
